System: Micrococcus luteus A270
Test: Microbroth dilution assay, MIC
Type: cell-based
Conditions: short derived peptides, 2.75 to 700 µg/mL, overnight 37 °C, read at 600 nm, three independent experiments
Residues, ends and D or L forms follow the SMILES beside them.
Item-by-item account of MIC, M. luteus
# number only, unit µM dropped from output

CSCC[C@H](NC(=O)[C@H](CCC(N)=O)NC(=O)[C@@H](N)CO)C(=O)NCC(=O)N[C@@H](CCC(N)=O)C(=O)N[C@@H](CCSC)C(=O)N[C@@H](CO)C(=O)N[C@@H](CO)C(=O)N[C@@H](CCCNC(=N)N)C(=O)N[C@@H](CCCNC(=N)N)C(=O)N[C@@H](CCCNC(=N)N)C(=O)N[C@@H](Cc1ccccc1)C(=O)NCC(=O)N[C@@H](CCCCN)C(=O)O [PS4] (H-SQMGQMSSRRRFGK-OH) has a reported MIC, M. luteus of 26.6

Lab note: measured MIC, M. luteus of CSCC[C@H](NC(=O)[C@H](CCC(N)=O)NC(=O)[C@@H](N)CO)C(=O)NCC(=O)N[C@@H](CCCNC(=N)N)C(=O)N[C@@H](CCSC)C(=O)N[C@@H](CO)C(=O)N[C@@H](CO)C(=O)N[C@@H](CCCNC(=N)N)C(=O)N[C@@H](CCCNC(=N)N)C(=O)N[C@@H](CCCNC(=N)N)C(=O)N[C@@H](Cc1ccccc1)C(=O)NCC(=O)N[C@@H](CCCCN)C(=O)O [PS2] (H-SQMGRMSSRRRFGK-OH) was 26.1

Consider N=C(N)NCCC[C@H](NC(=O)CNC(=O)[C@@H]1CCCN1C(=O)CNC(=O)[C@@H](N)CO)C(=O)N[C@@H](CCCNC(=N)N)C(=O)N[C@@H](CO)C(=O)N[C@@H](CO)C(=O)N[C@@H](CCCNC(=N)N)C(=O)N[C@@H](CCCNC(=N)N)C(=O)N[C@@H](CCCNC(=N)N)C(=O)N[C@@H](Cc1c[nH]c2ccccc12)C(=O)N[C@@H](CCCCN)C(=O)O [PS5] (H-SGPGRRSSRRRWK-OH) . Its measured MIC, M. luteus is 13.9

For record N=C(N)NCCC[C@H](NC(=O)[C@H](Cc1c[nH]c2ccccc12)NC(=O)[C@H](CCCNC(=N)N)NC(=O)[C@@H](N)CO)C(=O)N[C@@H](Cc1c[nH]c2ccccc12)C(=O)N[C@@H](CCCCN)C(=O)N[C@@H](CO)C(=O)O [PS6] (H-SRWRWKS-OH) the listed MIC, M. luteus is 43.8

Entry N=C(N)NCCC[C@H](NC(=O)[C@H](Cc1c[nH]c2ccccc12)NC(=O)[C@H](CCCNC(=N)N)NC(=O)[C@@H](N)CO)C(=O)N[C@@H](Cc1c[nH]c2ccccc12)C(=O)N[C@@H](CCCCN)C(=O)N[C@@H](CO)C(=O)N[C@@H](CO)C(=O)N[C@@H](CCCCN)C(=O)N[C@@H](CCCCN)C(=O)NCC(=O)N[C@@H](CO)C(=O)NCC(=O)O [PS1] (H-SRWRWKSSKKGSG-OH) — recorded MIC, M. luteus = 28.4

# compound N=C(N)NCCC[C@H](NC(=O)CNC(=O)[C@@H]1CCCN1C(=O)CNC(=O)[C@@H](N)CO)C(=O)N[C@@H](CCCNC(=N)N)C(=O)N[C@@H](CO)C(=O)N[C@@H](CO)C(=O)N[C@@H](CCCNC(=N)N)C(=O)N[C@@H](CCCNC(=N)N)C(=O)N[C@@H](CCCNC(=N)N)C(=O)N[C@@H](CCCCN)C(=O)O [PS3] (H-SGPGRRSSRRRK-OH) ; its MIC, M. luteus = 31.5

Source listed as paper PMC8777785.
